Each record here notes measured Stability of 67Ga-labeled model chelators, ApoTf (0.1 mM), 24 h.
test_target: apo-transferrin (apoTf) (Homo sapiens)
Sequence (P02787 20-698): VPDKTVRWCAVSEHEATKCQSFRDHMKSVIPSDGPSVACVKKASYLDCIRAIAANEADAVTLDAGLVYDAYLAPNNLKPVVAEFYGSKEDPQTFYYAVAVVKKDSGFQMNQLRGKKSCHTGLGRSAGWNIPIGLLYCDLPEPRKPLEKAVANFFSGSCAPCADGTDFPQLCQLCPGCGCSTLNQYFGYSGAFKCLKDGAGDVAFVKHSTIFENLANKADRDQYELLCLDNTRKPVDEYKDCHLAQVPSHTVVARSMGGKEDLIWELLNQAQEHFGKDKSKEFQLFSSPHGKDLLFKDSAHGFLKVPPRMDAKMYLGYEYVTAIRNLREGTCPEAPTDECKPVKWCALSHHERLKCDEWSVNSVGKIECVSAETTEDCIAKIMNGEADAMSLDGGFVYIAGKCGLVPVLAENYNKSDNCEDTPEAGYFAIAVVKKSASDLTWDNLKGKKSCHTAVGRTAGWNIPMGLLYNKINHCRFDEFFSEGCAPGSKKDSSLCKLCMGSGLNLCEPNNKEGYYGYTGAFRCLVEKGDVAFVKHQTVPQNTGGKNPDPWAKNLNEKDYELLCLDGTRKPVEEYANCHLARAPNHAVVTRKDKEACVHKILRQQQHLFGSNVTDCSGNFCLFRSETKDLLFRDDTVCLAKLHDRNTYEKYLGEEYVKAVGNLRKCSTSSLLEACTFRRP
method: Stability assessment in apoTf solution
Type: in vitro ADME
test_context: 74 kBq/100 μL added to same volume of 0.2 mM apoTf in 200 mM sodium bicarbonate buffer pH 7.4 (ApoTf 0.1 mM); 37 °C, 5% CO2; 24 h; RP-TLC; mean ± SD (n = 5)
Marks after values point to notes of the source that are not given here.

O=C([O-])CN1CCN(CC(=O)[O-])CCN(Cc2ccc([N+](=O)[O-])cc2)CCN(CC(=O)[O-])CC1.[67Ga+3] [[^67Ga]Ga-p-NO2-Bn-DO3A]    67.5 ± 0.6 ^b
O=C([O-])CN1CCN(CC(=O)[O-])CCN(CC(=O)[O-])C(Cc2ccc([N+](=O)[O-])cc2)CN(CC(=O)[O-])CC1.[67Ga+3] (centres unmarked) [[^67Ga]Ga-p-NO2-Bn-DOTA (A)]    90.3 ± 0.7 ^c ^d ^e ^f
CCCCNC(=O)CN1CCN(CC(=O)[O-])CCN(CC(=O)[O-])CCN(CC(=O)[O-])CC1.[67Ga+3] [[^67Ga]Ga-DO3AM^Bu]    43.1 ± 1.1 ^b ^c
CCCCNC(=O)CCC(C(=O)[O-])N1CCN(CC(=O)[O-])CCN(CC(=O)[O-])CCN(CC(=O)[O-])CC1.[67Ga+3] (centres unmarked) [[^67Ga]Ga-DOTAGAM^Bu]    27.5 ± 4.6 ^b ^c ^d

Request: Form field: Stability of 67Ga-labeled model chelators, ApoTf (0.1 mM), 24 h recorded for O=C([O-])CN1CCN(CC(=O)[O-])CCN(CC(=O)[O-])CCN(CC(=O)[O-])CC1.[67Ga+3] [[^67Ga]Ga-DOTA, reference compound] with apo-transferrin (apoTf) (Homo sapiens) (enter value)
Response: 89.6 ± 0.5
